# credit: paper PMC6882465

# assay target: LdGSK-3 (Leishmania donovani, UniProt A6N857)
# Sequence (A6N857 entry or part of it): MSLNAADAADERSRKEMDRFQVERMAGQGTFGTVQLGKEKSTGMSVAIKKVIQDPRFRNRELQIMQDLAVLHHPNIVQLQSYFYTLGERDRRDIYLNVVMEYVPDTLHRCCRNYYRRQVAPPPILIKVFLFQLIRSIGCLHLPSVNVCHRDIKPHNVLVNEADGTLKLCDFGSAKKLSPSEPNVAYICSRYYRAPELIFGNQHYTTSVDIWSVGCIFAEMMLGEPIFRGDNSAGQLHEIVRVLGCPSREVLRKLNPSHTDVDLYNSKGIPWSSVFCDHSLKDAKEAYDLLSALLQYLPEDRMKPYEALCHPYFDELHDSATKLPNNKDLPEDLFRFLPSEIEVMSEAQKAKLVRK
# test method notes: Inhibition of LdGSK-3 with Kinase Glo
# Format: biochemical
# condition: Table S2; 10 µM
assay endpoint: % inhibition @ 10µM (initial screening on LdGSK3) (%)
Please reply with the bare figure in % and do not write the unit itself.

Given COc1ccc(CNc2cc(C3CC3)nc(-c3nccn3C)n2)cc1.O=C(O)C(F)(F)F , state its recorded % inhibition @ 10µM (initial screening on LdGSK3). 15.30

Another molecule to look at: COc1ccccc1-n1c(SCC(=O)Nc2ccc3c(c2)OCO3)nc2c(c1=O)SCC2 5.20

One more molecule: O=C(CN1CCN(S(=O)(=O)c2cccc([N+](=O)[O-])c2)CC1)Nc1ccc(Oc2ccccc2)cc1 -2.95

Note, next up: Cc1ccc(Nc2nc(-c3ccccn3)cc(N3CCCC(O)C3)n2)cc1 (centres unmarked) 3.25

Next entry: Nc1nc(-c2ccccn2)nc(N)c1Cc1c(F)cccc1Cl 8.15

* * *

Field: % inhibition @ 10µM (initial screening on LdGSK3). Provide a value for each of the molecules that follow.
# assay target: LdGSK-3 (Leishmania donovani)
# test method notes: Inhibition of LdGSK-3 with Kinase Glo
# Type: biochemical
# condition: Table S2; 10 µM
Report as a plain number; the unit % is understood.

Entry CCN(Cc1cccs1)C(=O)CSc1nnc(-c2ccc3c(c2)OCO3)o1 [Compound 197] has what % inhibition @ 10µM (initial screening on LdGSK3)? 10.05

Another molecule: CN(C)S(=O)(=O)c1cccc(CSc2nnc(-c3ccc4c(c3)OCO4)o2)c1 [Compound 167] 38.45

Then Cc1nn(-c2nc3ccccc3[nH]2)c2c1C(c1ccc(O)cc1)CC(=O)N2 (stereo not shown) [Compound 120] ? 18.15

What do we get for Cc1ccccc1CNC(=O)CN(Cc1ccccn1)Cc1ccccn1.O=C(O)C(F)(F)F [Compound 203] ? 4.90

Consider next the molecule COc1cnc2ccc(=O)n(CCN3CCC(NC/C=C/c4cc(F)ccc4F)CC3)c2c1 [Compound 84] in the same way. 3.55

Moving on to the next molecule: CCOc1ccc(CN(C)Cc2nc(N)nc(Nc3ccc(C)cc3)n2)cc1 [Compound 78] 4.90

Repeat with OCC1CCCCN1c1cc(-c2ccccn2)nc(Nc2ccccc2)n1 (stereo not shown) [Compound 99] 0.60

// same read-out, input: CC1CN(Cc2ccc(C#N)cc2)CCN1c1ccc(NC(=O)c2ccccc2F)cc1.O=C(O)C(F)(F)F.O=C(O)C(F)(F)F (stereo not shown) [Compound 199] 8.70

Then what about the molecule Cc1ccc2onc(Nc3ccnc(Nc4cccc(S(C)(=O)=O)c4)n3)c2c1.O=C(O)C(F)(F)F [Compound 74] ? 10.00

Now consider CC(C)Nc1nc(Cl)nc2ccccc12 [Compound 106] and answer again. -4.60

Thanks! And COc1ccc(-c2csc(NC(=O)c3ccc([N+](=O)[O-])s3)n2)cc1 [Compound 201] ? 18.65

Another molecule to check: Cc1nc(C(=O)Nc2ccc3c(c2)OCO3)nn1-c1ccc(Cl)cc1 [Compound 149] 8.90

Same question, O=C1CN(C(=O)c2cccc(Nc3ncc(-c4ccc5c(c4)OCO5)cn3)c2)CCN1 [Compound 67] this time 5.65

// next record O=C(Nc1n[nH]c(-c2ccccn2)n1)C1CC1c1ccccc1 (stereo not shown) [Compound 76] 5.70

Check Cc1cc(N2CCc3ccccc3C2)nc(Nc2ccc(S(=O)(=O)N3CCOCC3)cc2)n1.Cl [Compound 73] too. -3.05

What do we get for c1ccc(Nc2nc(-c3ccccn3)cc(N3CCOCC3)n2)cc1 [Compound 34] ? -2.00

Thanks! And CC(C)COC(=O)Nc1ccc(N2CCC(CNS(=O)(=O)c3ccccc3)CC2)c(F)c1 [Compound 46] ? 4.95

And what about the molecule COc1ccc(Cc2nc(-c3ncc4cccnc4c3O)n[nH]2)cc1OC [Compound 77] ? 4.60

Consider next the molecule Nc1nc(-c2ccccc2)cc(-c2nc3ncccc3[nH]2)n1 [Compound 169] in the same way. 32.90

Same question, CC(=O)Nc1ccc(-c2csc(NC(=O)c3ccc([N+](=O)[O-])s3)n2)cc1 [Compound 141] this time 8.55

Consider next the molecule COc1ccc(S(=O)(=O)Nc2ccc(C(=O)Nc3nc(-c4ccccn4)cs3)cc2)cc1 [Compound 175] in the same way. 16.65

What about COc1cc(Cl)c(C)cc1NC(=O)c1ccc([N+](=O)[O-])s1 [Compound 176] ? 8.55

Entry O=C(CN1CCN(c2ccccn2)CC1)Nc1cc(S(=O)(=O)N2CCCCCC2)ccc1Cl [Compound 208] please 10.20

Please give the result for COc1ccc(Oc2ccc(C(C)N(C)c3ncc4c(N)nc(N)nc4n3)cc2)cc1 (stereo not shown) [Compound 56] too. 0.50

# iterate: N#Cc1ccccc1S(=O)(=O)N1CCN(C(=O)CNC(=O)c2ccc3c(c2)OCO3)CC1 [Compound 82] 1.90

// query: CC(C)c1nn(-c2nc(N)nc(-c3ccccn3)n2)c(N)c1C1CCCCC1 [Compound 94] 10.45

Next molecule up: CC(CCc1ccccc1)NC(=O)CN(Cc1ccccn1)Cc1ccccn1.O=C(O)C(F)(F)F (stereo not shown) [Compound 134] 5.25

How about Cc1cccc(Nc2nc(-c3ccccn3)cs2)n1 [Compound 147] ? 13.40

* * *

# assay target: LdGSK-3 (Leishmania donovani)
# test method notes: Inhibition of LdGSK-3 with Kinase Glo
# Assay type: biochemical
# condition: Table S2; 10 µM
assay endpoint: % inhibition @ 10µM (initial screening on LdGSK3) (%)
The answer is to be given in %; state only the numeric part.

Please state recorded % inhibition @ 10µM (initial screening on LdGSK3) (tested on LdGSK-3 (Leishmania donovani)) of CCn1c(NC(=O)Cc2ccc(F)cc2)nc2ccccc21 13.00

Please give the result for CN(C)Cc1cccc(Nc2nccc(-c3ccc(NCCN)c(C#N)c3)n2)c1 too. 100.29

One more compound: N#Cc1cccc(CNc2ccc(-c3cnn(CC4CC4)c(=O)c3C#N)cc2)c1 -3.20

CCOc1ccc2nc(NC(=O)c3ccc([N+](=O)[O-])s3)sc2c1 , same question. 9.25

// query: COc1ccc(-c2cnc(NC(=O)c3ccc(F)cc3)n2C)cc1 2.00

Check COc1ccc(C2CC(c3ccc(NS(C)(=O)=O)cc3)=NN2C(=O)c2cccs2)cc1OC (stereo not shown) too. 11.90

Now the compound Cl.NCc1ccc2c(Cl)cc(Cl)c(O)c2n1 14.80

Also check CC(C)(C)c1csc(NC(=O)c2ccc([N+](=O)[O-])s2)n1 5.90

What about this compound? O=C(Nc1ccc(S(=O)(=O)N2CCCC2)cc1)c1ccc([N+](=O)[O-])s1 16.15

Moving on to the next compound: Cc1ccc(Nc2nc(N)nc(CNC(c3nc4ccccc4[nH]3)C(C)C)n2)cc1 (stereo not shown) 6.40
